Form field: TGI (one value per entry).
System: M14 melanoma
experiment: NCI tumour cell line growth inhibition, 48 h

Would you please look over these solved cases?
• Cc1ccnc2c(NC(C)CCCN)cc(O)c(O)c12 (centres undefined) = > 100 µM
• COc1ccc(-c2c(-c3ccccc3)c(C)nc3[nH]c(=S)[nH]c(=S)c23)cc1OC = > 100 µM
• CC(=O)OC1CC(OC2C(O)CC(OC3C(O)CC(OC4CCC5(C)C(CCC6C5CCC5(C)C(C7=CC(=O)OC7)CCC65O)C4)OC3C)OC2C)OC(C)C1OC1OC(CO)C(O)C(O)C1O (centres undefined) = 0.188 µM
• C[C@H](CCC(=O)NCCS(=O)(=O)O)[C@H]1CC[C@H]2[C@@H]3[C@H](O)C[C@@H]4C[C@H](O)CC[C@]4(C)[C@H]3CC[C@]12C = > 100 µM
• C(=C\c1ccncc1)/c1ccncc1 = > 100 µM

// query Please state recorded TGI (tested on M14 melanoma) of `O=C1C(Cl)=C(Cl)C(=O)N1c1cccc(C(F)(F)F)c1`
// result > 100 µM

// query Also need `O=C1C(c2c(O)[nH]c3ccc(Cl)cc23)=Nc2ccccc21` , thanks.
// result > 100 µM

* * *

Test system: DMS 273 small cell lung
experiment: NCI tumour cell line growth inhibition, 48 h
observed_property: TGI

Would you please look over these solved cases?
• O=NN1CCN=C1c1ccc([N+](=O)[O-])cc1 = > 100 µM
• CCOC(=O)C(=O)Nc1c(C)cccc1C(C)(C)C = > 100 µM
• O=C(O)/C(Cl)=C(Cl)/C=N/NC(=O)c1cc2ccccc2cc1O = 45.2 µM
• CCCCCN(CCCCC)C(=O)[C@H](CCC(=O)O)NC(=O)c1cc2ccccc2[nH]1 = > 100 µM

// query Please state recorded TGI (tested on DMS 273 small cell lung) of `CN(C)C(=S)/N=c1\ssc(=S)n1Cc1ccco1`
// result > 42.2 µM

// query Also need NC(=O)C(=O)C1C(=O)N(c2ccccc2)N=C1N (stereo unspecified) , thanks.
// result > 100 µM

* * *

Tested on: 786-0 renal
experiment: NCI tumour cell line growth inhibition, 48 h
Form field: GI50 (one value per entry).

Would you please look over these solved cases?
* O=c1cc(-c2ccccc2)oc2cc(OCCCCCN3CCOCC3)cc(O)c12 | 30 µM
* CCCCSc1nc(N)c2cn[nH]c2n1 | 21.2 µM
* CNCC(=O)NC(CO)C(=O)NC(CO)C(=O)NC1C(C(N)=O)OC(n2ccc(N)nc2=O)C(O)C1O (configuration not stated) | 12.5 mg/L
* O=C(CSC(c1ccccc1)c1ccccc1)N/N=C/c1ccccc1Cl | 19.8 µM
* C#CCOc1cccc(Nc2ncnc3cc(NC(=O)C=C)ccc23)c1 | 5.97 µM
* C=C1C(=O)O[C@H]2[C@H]1CC/C(COC(=O)CCCCCCCC(=O)OC/C1=C/CC[C@@]3(C)O[C@H]3[C@H]3OC(=O)C(=C)[C@@H]3CC1)=C\CC[C@@]1(C)O[C@@H]21 | 1.68 µM

// query Query: GI50; subject: C[C@@]1(C(=O)O)CCC[C@]2(C)C1CC[C@]13C[C@@](O)(CO)[C@](O)(CC[C@]12O)C3 (some centres not stated)
// result > 100 µM

// query Also need `Cc1ccc(-c2c3c(nn2-c2ccc(S(=O)(=O)NC(=O)NC4CCCCC4)cc2)-c2ccccc2C3)cc1` , thanks.
// result 2.29 µM

// query Also need `CC(=O)O[C@@H]1C2=C(C)C3(CC3)[C@@](C)(O)C(=O)C2=C[C@@]1(C)CO` , thanks.
// result 2.04 µM

// query Also need `CC1=NN(c2cccc(Cl)c2)C(=O)/C1=C\C=C\c1ccccc1` , thanks.
// result 2.16 µM

// query Also need `CC(C)c1[nH]nc2c(NCc3ccc(-c4ccccn4)cc3)nc(SCCN(C)C)nc12` , thanks.
// result 0.0767 µM

// query Also need `Oc1ccc(Cl)cc1Sc1cc(Cl)ccc1O` , thanks.
// result 11.9 µM

All figures here come from PubChem BioAssay (NCI).
